System: PC-14
Protocol Details: relative viability (nuclei count vs DMSO), 5 days (fraction); higher = more cells survive
Measurement Setup: first compound 0.253 µM

{"Molecule": "COc1nc(C)cnc1NS(=O)(=O)c1cccnc1-c1ccc(-c2nnco2)cc1 [Zibotentan] + O=C(c1cc(Cc2n[nH]c(=O)c3ccccc23)ccc1F)N1CCN(C(=O)C2CC2)CC1 [Olaparib] (partner 8 µM)", "relative viability": 0.271}
{"Molecule": "COc1nc(C)cnc1NS(=O)(=O)c1cccnc1-c1ccc(-c2nnco2)cc1 [Zibotentan] + CC(C)C[C@H](NC(=O)[C@H](Cc1ccccc1)NC(=O)c1cnccn1)B(O)O [Bortezomib] (partner 0.002 µM)", "relative viability": 0.922}
{"Molecule": "O=c1cc(-c2cccc3c2Sc2ccccc2S3)oc(N2CCOCC2)c1 + CCNC(=O)c1noc(-c2cc(C(C)C)c(O)cc2O)c1-c1ccc(CN2CCOCC2)cc1 [Luminespib] (partner 0.01 µM)", "relative viability": 0.15}
{"Molecule": "O=c1cc(-c2cccc3c2Sc2ccccc2S3)oc(N2CCOCC2)c1 + Cc1nc(Nc2ncc(C(=O)Nc3c(C)cccc3Cl)s2)cc(N2CCN(CCO)CC2)n1 [Dasatinib] (partner 0.075 µM)", "relative viability": 0.217}
{"Molecule": "O=c1cc(-c2cccc3c2Sc2ccccc2S3)oc(N2CCOCC2)c1 + CC(=O)c1c(C)c2cnc(Nc3ccc(N4CCNCC4)cn3)nc2n(C2CCCC2)c1=O [Palbociclib] (partner 0.5 µM)", "relative viability": 0.746}
{"Molecule": "COc1nc(C)cnc1NS(=O)(=O)c1cccnc1-c1ccc(-c2nnco2)cc1 [Zibotentan] + CC(=O)Nc1cccc(-n2c(=O)n(C3CC3)c(=O)c3c(Nc4ccc(I)cc4F)n(C)c(=O)c(C)c32)c1 [Trametinib] (partner 0.02 µM)", "relative viability": 0.752}
{"Molecule": "O=c1cc(-c2cccc3c2Sc2ccccc2S3)oc(N2CCOCC2)c1 + Cc1nc(NC(=O)N2CCC[C@H]2C(N)=O)sc1-c1ccnc(C(C)(C)C(F)(F)F)c1 [Alpelisib] (partner 2 µM)", "relative viability": 1.17}
{"Molecule": "COc1nc(C)cnc1NS(=O)(=O)c1cccnc1-c1ccc(-c2nnco2)cc1 [Zibotentan] + Cc1cc(Nc2cc(N3CCN(C)CC3)nc(Sc3ccc(NC(=O)C4CC4)cc3)n2)n[nH]1 [Tozasertib] (partner 0.1 µM)", "relative viability": 0.527}

====

Catalogue of compounds with associated relative viability
Tested on: NCI-H520
Protocol Details: relative viability (nuclei count vs DMSO), 5 days (fraction); higher = more cells survive
Measurement Setup: first compound 6.325 µM

{"Compound": "COCC1(CO)C(=O)C2CCN1CC2 (stereo not given) [PRIMA-1MET] + CC1(C)CCC(c2ccc(Cl)cc2)=C(CN2CCN(c3ccc(C(=O)NS(=O)(=O)c4ccc(N[C@H](CCN5CCOCC5)CSc5ccccc5)c(S(=O)(=O)C(F)(F)F)c4)cc3)CC2)C1 [Navitoclax] (partner 0.5 µM)", "Experimental Target": "NCI-H520", "relative viability": 1.17}
{"Compound": "COCC1(CO)C(=O)C2CCN1CC2 (stereo not given) [PRIMA-1MET] + CC(C)C[C@H](NC(=O)[C@H](Cc1ccccc1)NC(=O)c1cnccn1)B(O)O [Bortezomib] (partner 0.002 µM)", "Experimental Target": "NCI-H520", "relative viability": 0.613}
{"Compound": "COCC1(CO)C(=O)C2CCN1CC2 (stereo not given) [PRIMA-1MET] + COc1cc2c(Oc3ccc(NC(=O)C4(C(=O)Nc5ccc(F)cc5)CC4)cc3F)ccnc2cc1OCCCN1CCOCC1 [Foretinib] (partner 0.25 µM)", "Experimental Target": "NCI-H520", "relative viability": 0.715}
{"Compound": "COCC1(CO)C(=O)C2CCN1CC2 (stereo not given) [PRIMA-1MET] + CCNC(=O)c1noc(-c2cc(C(C)C)c(O)cc2O)c1-c1ccc(CN2CCOCC2)cc1 [Luminespib] (partner 0.01 µM)", "Experimental Target": "NCI-H520", "relative viability": 0.2}
{"Compound": "COCC1(CO)C(=O)C2CCN1CC2 (stereo not given) [PRIMA-1MET] + Nc1nc2[nH]cc(CCc3ccc(C(=O)N[C@@H](CCC(=O)O)C(=O)O)cc3)c2c(=O)[nH]1 [Pemetrexed] (partner 0.2 µM)", "Experimental Target": "NCI-H520", "relative viability": 0.647}
